assay_details: Bioavailability study in dog
Assay type: in vivo
condition: plasma, iv; Female beagle dog, 0.5 mg/kg i.v.; read-out: T½ i.v. (converted)
assay_readout: half-life (h)
Numbers only, in h.

Query: Which half-life is reported for this molecule? "O=c1ccc2ccc(O[C@@H]3C[C@H]4CC[C@@H](C3)N4)cc2o1"
Result: 1.4

====

assay_details: Exposure and tissue distribution after 14 days repeat dosing, rat
Assay type: in vivo
condition: rat, brain/plasma, sc; Male rats, 25 mg/kg s.c. 14 days, 2 h post last dose; read-out: Brain/plasma ratio
assay_readout: Kp at 2 h
One number for each entry.

Query: Report Kp at 2 h for O=c1ccc2ccc(O[C@@H]3C[C@H]4CC[C@@H](C3)N4)cc2o1 [Compound (I)] please.
Result: 5

====

study_target: Nicotinic α4β2 (Rattus norvegicus, UniProt P09483+P12390)
Sequence (P09483 31-630): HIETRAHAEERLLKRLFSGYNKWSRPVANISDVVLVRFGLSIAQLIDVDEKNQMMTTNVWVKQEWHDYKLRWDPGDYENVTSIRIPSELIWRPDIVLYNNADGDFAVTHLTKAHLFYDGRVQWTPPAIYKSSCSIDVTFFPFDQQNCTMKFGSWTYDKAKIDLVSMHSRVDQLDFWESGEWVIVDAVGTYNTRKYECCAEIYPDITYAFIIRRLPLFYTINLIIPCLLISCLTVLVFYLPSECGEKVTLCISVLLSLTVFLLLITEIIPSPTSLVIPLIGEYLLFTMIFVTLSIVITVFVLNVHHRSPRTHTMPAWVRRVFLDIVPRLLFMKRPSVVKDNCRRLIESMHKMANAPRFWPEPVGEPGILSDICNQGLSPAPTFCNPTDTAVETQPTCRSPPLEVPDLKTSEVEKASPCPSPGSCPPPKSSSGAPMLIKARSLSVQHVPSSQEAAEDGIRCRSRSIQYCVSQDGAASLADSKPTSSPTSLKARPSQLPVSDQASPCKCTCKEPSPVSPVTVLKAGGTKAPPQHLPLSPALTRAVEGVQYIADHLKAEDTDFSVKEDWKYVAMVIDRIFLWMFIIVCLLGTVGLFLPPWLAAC
Sequence (P12390 25-500): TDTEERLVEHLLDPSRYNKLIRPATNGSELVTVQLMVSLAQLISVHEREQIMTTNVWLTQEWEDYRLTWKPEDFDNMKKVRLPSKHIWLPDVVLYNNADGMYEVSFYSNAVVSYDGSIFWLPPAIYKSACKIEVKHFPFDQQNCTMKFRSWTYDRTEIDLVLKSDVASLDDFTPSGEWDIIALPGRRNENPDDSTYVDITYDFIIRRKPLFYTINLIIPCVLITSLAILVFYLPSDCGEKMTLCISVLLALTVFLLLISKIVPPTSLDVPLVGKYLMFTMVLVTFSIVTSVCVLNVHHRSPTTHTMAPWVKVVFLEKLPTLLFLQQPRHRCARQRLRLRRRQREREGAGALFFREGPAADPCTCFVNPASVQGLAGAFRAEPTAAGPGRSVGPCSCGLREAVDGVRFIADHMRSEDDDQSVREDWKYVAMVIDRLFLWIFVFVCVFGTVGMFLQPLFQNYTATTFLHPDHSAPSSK
assay_details: In-house nicotinic binding assay, Nicotinic α4β2
assay_readout: IC50 (µM)
Give bare numbers, in µM.

Query: Please tell me: IC50 of "O=c1ccc2ccc(O[C@@H]3C[C@H]4CC[C@@H](C3)N4)cc2o1" , system Nicotinic α4β2 (Rattus norvegicus, UniProt P09483+P12390)?
Result: 31

====

study_target: NET (Homo sapiens)
Sequence (P23975 whole entry): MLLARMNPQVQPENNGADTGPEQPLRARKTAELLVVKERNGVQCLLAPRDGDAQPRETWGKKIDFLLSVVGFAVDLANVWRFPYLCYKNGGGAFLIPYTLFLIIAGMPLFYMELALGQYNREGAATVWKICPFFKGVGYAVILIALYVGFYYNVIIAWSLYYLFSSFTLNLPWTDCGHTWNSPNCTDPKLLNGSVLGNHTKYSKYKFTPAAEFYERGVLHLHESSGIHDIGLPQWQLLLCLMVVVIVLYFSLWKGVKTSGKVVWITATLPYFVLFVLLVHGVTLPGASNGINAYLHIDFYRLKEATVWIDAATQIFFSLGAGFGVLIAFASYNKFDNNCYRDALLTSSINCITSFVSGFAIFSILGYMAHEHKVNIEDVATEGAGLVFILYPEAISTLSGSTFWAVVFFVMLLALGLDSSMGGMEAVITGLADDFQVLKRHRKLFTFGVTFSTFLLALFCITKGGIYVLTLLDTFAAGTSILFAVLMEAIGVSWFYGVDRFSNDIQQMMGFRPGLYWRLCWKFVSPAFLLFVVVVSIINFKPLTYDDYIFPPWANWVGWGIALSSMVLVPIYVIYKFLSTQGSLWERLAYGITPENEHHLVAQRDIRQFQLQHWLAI
assay_readout: Ki (nM)
Numbers only, in nM.

Query: Returns the measured Ki for the input molecule. Input: "O=c1ccc2ccc(O[C@@H]3C[C@H]4CC[C@@H](C3)N4)cc2o1"
Result: 594

====

assay_details: Linearity after single p.o. dose in mouse
Assay type: in vivo
condition: female, NMRI, plasma, po; mouse, 30 mg/kg p.o.; read-out: T½ (converted)
assay_readout: half-life (h)
One number for each entry, in h.

Query: // lookup half-life for O=c1ccc2ccc(O[C@@H]3C[C@H]4CC[C@@H](C3)N4)cc2o1 [Compound (I)]
Result: 5.1

====

assay_details: Linearity after single s.c. dose in rat
Assay type: in vivo
condition: Wistar, plasma, sc; rat, 10 mg/kg s.c.; read-out: T½ (converted)
assay_readout: half-life
Just so you know, I need the unit written after the number.

Query: Consider the compound shown here: "O=c1ccc2ccc(O[C@@H]3C[C@H]4CC[C@@H](C3)N4)cc2o1" What is its recorded half-life?
Result: 40.8 min

====

study_target: DA transporter (Homo sapiens, UniProt Q01959)
Sequence (Q01959 whole entry): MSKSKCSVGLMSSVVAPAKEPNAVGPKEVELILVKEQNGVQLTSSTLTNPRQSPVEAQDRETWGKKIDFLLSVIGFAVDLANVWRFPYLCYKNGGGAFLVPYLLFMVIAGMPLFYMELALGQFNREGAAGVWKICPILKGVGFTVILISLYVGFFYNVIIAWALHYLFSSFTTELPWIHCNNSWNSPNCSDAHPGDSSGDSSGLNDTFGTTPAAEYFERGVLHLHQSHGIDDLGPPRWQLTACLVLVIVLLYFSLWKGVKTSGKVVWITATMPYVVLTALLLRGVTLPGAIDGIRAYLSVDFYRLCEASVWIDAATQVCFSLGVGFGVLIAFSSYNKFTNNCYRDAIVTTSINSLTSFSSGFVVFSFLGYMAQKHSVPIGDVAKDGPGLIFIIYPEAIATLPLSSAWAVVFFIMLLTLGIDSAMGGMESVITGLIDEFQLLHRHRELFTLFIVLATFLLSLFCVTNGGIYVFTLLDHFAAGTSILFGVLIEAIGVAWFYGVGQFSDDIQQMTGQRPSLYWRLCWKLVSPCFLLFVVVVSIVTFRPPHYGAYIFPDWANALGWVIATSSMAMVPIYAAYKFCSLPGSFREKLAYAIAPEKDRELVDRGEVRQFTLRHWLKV
assay_details: ^3H-uptake human, DA transporter
assay_readout: Ki (nM)
Answers are plain numbers, in nM.

Query: Can you look up the measured Ki of "O=c1ccc2ccc(O[C@@H]3C[C@H]4CC[C@@H](C3)N4)cc2o1" for me?
Result: 100

====

assay_details: Exposure and tissue distribution after 14 days repeat dosing, rat
Format: in vivo
condition: Wistar, rat, liver, sc; Female rats, 10 mg/kg s.c. 14 days, 2 h post last dose; read-out: Liver concentration
assay_readout: concentration at 2 h (ng/g)
One number for each entry, in ng/g.

Query: // returns reported concentration at 2 h for input "O=c1ccc2ccc(O[C@@H]3C[C@H]4CC[C@@H](C3)N4)cc2o1"
Result: 738

====

assay_details: Linearity after single p.o. dose in mouse
Assay type: in vivo
condition: plasma, po; female NMRI mouse, 60 mg/kg p.o., 5% Tween 80
assay_readout: Tmax (min)
Numbers only, in min.

Query: Query (compound): "O=c1ccc2ccc(O[C@@H]3C[C@H]4CC[C@@H](C3)N4)cc2o1" ; field requested: Tmax
Result: 30

====

assay_details: in vivo
condition: male, Wistar, rat, plasma, oral, 5 mg/kg
assay_readout: bioavailability (%)
One number for each entry, in %.

Query: I would be grateful if you could share the reported bioavailability for "O=c1ccc2ccc(O[C@@H]3C[C@H]4CC[C@@H](C3)N4)cc2o1" .
Result: 3

====

assay_details: Tissue distribution after single dose, mouse
Assay type: in vivo
condition: po; Liver, female NMRI mouse 10 mg/kg p.o.; read-out: T½ (converted)
assay_readout: half-life
Hi, when you answer, please include the unit after the number. Thanks!

Query: Given "O=c1ccc2ccc(O[C@@H]3C[C@H]4CC[C@@H](C3)N4)cc2o1" , state its recorded half-life.
Result: 2.5 h

====

assay_details: in vivo
condition: male, Wistar, rat, plasma, po, 5 mg/kg
assay_readout: Tmax
Put down the number, then write its unit next to it.

Query: Item under review: O=c1ccc2ccc(O[C@@H]3C[C@H]4CC[C@@H](C3)N4)cc2o1 [Compound (I)] . Reported Tmax?
Result: 30 min

====

assay_details: Bioavailability study in mouse
Format: in vivo
condition: female, NMRI, plasma, po, 10 mg/kg p.o.
Excerpt: Compound (I) is absorbed quickly.
assay_readout: Cmax (ng/mL)
One number for each entry, in ng/mL.

Query: Which Cmax value is on record for O=c1ccc2ccc(O[C@@H]3C[C@H]4CC[C@@H](C3)N4)cc2o1 [Compound (I)] ?
Result: 1090

====

assay_details: Exposure and tissue distribution after 14 days repeat dosing, mouse
Format: in vivo
condition: NMRI, mouse, in vivo, po; Male mice, 30 mg/kg p.o. 14 days, 2 h post last dose; read-out: Liver/plasma ratio
assay_readout: Kp at 2 h
Give bare numbers.

Query: // Kp at 2 h lookup, key: "O=c1ccc2ccc(O[C@@H]3C[C@H]4CC[C@@H](C3)N4)cc2o1"
Result: 17

====

assay_details: Linearity after single p.o. dose in mouse
Assay type: in vivo
condition: female, NMRI, plasma, po; mouse, 30 mg/kg p.o., compared to 10 mg/kg i.v.
assay_readout: bioavailability

Query: Dear colleague, I am looking for the recorded bioavailability of the following molecule: "O=c1ccc2ccc(O[C@@H]3C[C@H]4CC[C@@H](C3)N4)cc2o1"
Result: 206%

====

assay_details: Exposure and tissue distribution after 14 days repeat dosing, rat
Assay type: in vivo
condition: Wistar, rat, brain/plasma, sc; Male rats, 15 mg/kg s.c. 14 days, 2 h post last dose; read-out: Brain/plasma ratio
assay_readout: Kp at 2 h
Numbers only.

Query: Tell me the measured Kp at 2 h of "O=c1ccc2ccc(O[C@@H]3C[C@H]4CC[C@@H](C3)N4)cc2o1" , please.
Result: 5

====

assay_details: Exposure and tissue distribution after 14 days repeat dosing, mouse
Assay type: in vivo
condition: NMRI, mouse, plasma, po; Female mice, 15 mg/kg p.o. 14 days, 2 h post last dose; read-out: Plasma concentration
assay_readout: concentration at 2 h
The number alone won't do; follow it with the unit.

Query: For the compound shown here, "O=c1ccc2ccc(O[C@@H]3C[C@H]4CC[C@@H](C3)N4)cc2o1" , give the reported concentration at 2 h.
Result: 390 ng/mL

====

assay_details: Linearity after single s.c. dose in rat
Format: in vivo
condition: Wistar, plasma, sc; rat, 5 mg/kg s.c., compared to 10 mg/kg i.v. in same vehicle
assay_readout: bioavailability (%)
One number for each entry, in %.

Query: bioavailability for "O=c1ccc2ccc(O[C@@H]3C[C@H]4CC[C@@H](C3)N4)cc2o1" ?
Result: 113

====

assay_details: Bioavailability study in mouse
Type: in vivo
condition: female, NMRI, plasma, intravenous, 10 mg/kg
assay_readout: Vd (L/kg)
One number for each entry, in L/kg.

Query: What value of Vd has been reported for the following compound? O=c1ccc2ccc(O[C@@H]3C[C@H]4CC[C@@H](C3)N4)cc2o1 [Compound (I)]
Result: 3.5

====

assay_details: Cardiovascular safety in anaesthetised dogs
condition: beagle, dog, plasma, intravenous
assay_readout: concentration at 5 min

Query: Record request: concentration at 5 min value, item "O=c1ccc2ccc(O[C@@H]3C[C@H]4CC[C@@H](C3)N4)cc2o1"
Result: 6500 to 15000 ng/mL

====

assay_details: in vivo
condition: male, Wistar, rat, plasma, iv, 2.5 mg/kg
assay_readout: half-life (min)
Answers are plain numbers, in min.

Query: Which half-life value belongs to "O=c1ccc2ccc(O[C@@H]3C[C@H]4CC[C@@H](C3)N4)cc2o1" ?
Result: 48

====

assay_details: in vivo
condition: male, Wistar, rat, plasma, iv, 2.5 mg/kg
assay_readout: AUC(0-inf) (ng·h/mL)
Numbers only, in ng·h/mL.

Query: Param item = O=c1ccc2ccc(O[C@@H]3C[C@H]4CC[C@@H](C3)N4)cc2o1 [Compound (I)] ; retrieve measured AUC(0-inf).
Result: 306

====

assay_details: in vivo
condition: male, Wistar, rat, plasma, po, 5 mg/kg
assay_readout: Cmax (ng/mL)
Give bare numbers, in ng/mL.

Query: Requested read-out: Cmax. Entry: O=c1ccc2ccc(O[C@@H]3C[C@H]4CC[C@@H](C3)N4)cc2o1 [Compound (I)]
Result: 8

====

assay_details: Exposure and tissue distribution after 14 days repeat dosing, mouse
Format: in vivo
condition: mouse, brain, po; Male mice, 90 mg/kg p.o. 14 days, 2 h post last dose; read-out: Brain/plasma ratio
assay_readout: Kp at 2 h
One number for each entry.

Query: Consider the compound O=c1ccc2ccc(O[C@@H]3C[C@H]4CC[C@@H](C3)N4)cc2o1 [Compound (I)] and give its measured Kp at 2 h.
Result: 4
